tested on: full length human vWF; test: 3-point dot blot screen, full length human vWF; format: binding; settings: 20 nM full length human vWF, ratio of fraction of aptamer bound with target protein to fraction bound without protein
MEASURED_ENDPOINT: Screen- Human/No Protein
Could you respond with only the numeric value?

| MOLECULE | Screen- Human/No Protein |
| --- | --- |
| AMX237.D11: DNA SELEX 2 aptamer clone (nucleic acid, DNA, backbone not given here, DNA SELEX 2 aptamer clone) DNA: CTACCTACGATCTGACTAGCTCCAGTGTTTTATATAATAACCGTGCGGTGCCTCCGTGATGCTTACTCTCATGTAGTTCC | 1.16 |

Please look at the following molecule next.
## Task Kindly indicate its recorded Screen- Human/No Protein. Item: AMX237.C4: DNA SELEX 2 aptamer clone (nucleic acid, DNA, backbone not given here, DNA SELEX 2 aptamer clone) DNA: CTACCTACGATCTGACTAGCTTTCAGTCTTCCACATTTATAGGGTTTGGCATTGGGTCTGGCTTACTCTCATGTAGTTCC
## Result 0.97

Cited source for all entries: patent US7998940B2
